Each record here notes measured IC50.
target: Genome polyprotein (dengue virus type 2); experiment: Inhibition of Dengue virus type 2 NS5 RNA methyltransferase SAM site with 0.1 % TX100
Sequence (P12823 2489-3388 limits assumed): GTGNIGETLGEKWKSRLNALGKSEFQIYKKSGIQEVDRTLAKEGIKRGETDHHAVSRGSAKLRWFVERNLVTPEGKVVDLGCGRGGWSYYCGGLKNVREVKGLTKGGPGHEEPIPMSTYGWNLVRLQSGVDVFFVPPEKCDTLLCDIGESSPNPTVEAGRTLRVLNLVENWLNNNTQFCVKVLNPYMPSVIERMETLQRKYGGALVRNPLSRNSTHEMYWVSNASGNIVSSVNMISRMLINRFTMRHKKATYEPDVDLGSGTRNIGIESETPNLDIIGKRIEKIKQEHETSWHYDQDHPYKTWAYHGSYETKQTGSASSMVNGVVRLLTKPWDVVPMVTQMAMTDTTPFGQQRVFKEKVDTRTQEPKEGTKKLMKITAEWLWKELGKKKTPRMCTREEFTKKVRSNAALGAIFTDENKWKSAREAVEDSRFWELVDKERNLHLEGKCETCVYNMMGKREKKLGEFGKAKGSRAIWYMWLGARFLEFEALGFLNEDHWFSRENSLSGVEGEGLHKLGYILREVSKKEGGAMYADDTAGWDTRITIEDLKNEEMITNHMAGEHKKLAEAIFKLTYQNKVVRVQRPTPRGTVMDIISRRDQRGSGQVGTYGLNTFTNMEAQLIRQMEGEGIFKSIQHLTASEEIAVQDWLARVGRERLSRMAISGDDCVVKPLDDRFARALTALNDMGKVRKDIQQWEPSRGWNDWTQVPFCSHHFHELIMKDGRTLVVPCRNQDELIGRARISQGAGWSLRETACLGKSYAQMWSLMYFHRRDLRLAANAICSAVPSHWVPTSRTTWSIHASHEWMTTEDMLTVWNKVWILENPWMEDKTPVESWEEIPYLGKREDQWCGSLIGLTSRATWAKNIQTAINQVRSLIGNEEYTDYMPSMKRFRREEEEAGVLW
MEASURED_ATTRIBUTE: IC50 (µM)

> print(dat)
                               entry.smiles  qualifier.operator  result
1  COc1ccc(CN(CC[C@@H](c2ccccc2)c2ccco2)C(=O)c2ccoc2)cc1                   >      25
2  COc1ccc(/C=C2/CN(CCCC(=O)O)C(=O)C2=O)cc1                   =    4.47
3  Cc1ccccc1COc1ccc(C(=O)[C@@H]2C(=O)C(=O)N(Cc3ccncc3)[C@H]2c2cccc(O)c2)cc1                   >     100
4    Cc1cc(O)c2c(c1)C(=O)c1cc(O)cc(O)c1C2=O                   =    79.8
5  Cc1ccc(C)c(C(=O)C2=C(O)C(=O)N(CCc3ccccc3)[C@@H]2c2ccc(O)cc2)c1                   >     100
